# test-system: human P2X3 receptor (Homo sapiens (Human))
# protocol-summary: Evaluation of human P2X3 receptor inhibitory activity (Test Example 1-1, FDSS 3000, 96-well, 50 nM ATP)
# Type: cell-based
# applied-conditions: human P2X3 receptor in C6BU-1 cells; Test Example 1-1 (compounds I-001 to I-300)
compounds and their reported IC50
Hi! Could you send only the number? It should be in nM, unit omitted.

Recorded results for 3 compounds are shown here.
CCc1oc2ccc(/N=c3\[nH]cc(C=NOC)c(=O)n3Cc3ccc(Cl)cc3)cc2c1C [Compound I-058]
223
O=C(NC1CCOCC1)c1cn(Cc2ccccn2)c(Nc2ccc(Oc3cccc(F)n3)cc2)nc1=O [Compound I-295]
618
COC(=O)[C@@H](C)Cn1c(=O)cc(Nc2ccc(Oc3cccc(F)n3)cc2)n(Cc2ccc(Cl)cc2)c1=O [Compound I-116]
6

Turning now to a further compound:
Response field IC50 (human P2X3 receptor (Homo sapiens (Human))) for item CCC(=O)Nc1c[nH]/c(=N\c2ccc(Oc3ccc(C(N)=O)nc3)cc2)n(Cc2ccc(Cl)cc2)c1=O [Compound I-095] : 8

----------
Item-by-item account of pIC50
# test-system: UniProt:P56373
# protocol-summary: Evaluation of human P2X3 receptor inhibitory activity (Test Example 1-2, FLIPR 384, 384-well, 150 nM ATP)
# Assay type: cell-based
# applied-conditions: human P2X3 receptor in C6BU-1 cells; Test Example 1-2 (compounds I-301 to I-483); read-out: P2X3 IC50
In plain terms, pIC50 is the concentration in mol/L turned into minus its base-10 logarithm.

The reported value for "COC(=O)c1nnc(-c2c[nH]/c(=N\c3ccc(Oc4ccon4)cc3)n(Cc3ccc(Cl)cc3)c2=O)o1" in terms of pIC50 is 6.96

Field pIC50 (entry "O=C(NC1CCOCC1)c1cn(Cc2ccc(Cl)cc2)c(Nc2ccc3nc(C(F)F)sc3c2)nc1=O" ) reads 7.24

GET /value?item= "CCC(=O)Nc1c[nH]/c(=N\c2ccc(Oc3ccc(C(=O)OC)nn3)cc2)n(Cc2ccc(Cl)cc2)c1=O" &field=pIC50 returns 8.30

Quick note, pIC50 for "O=C(NCc1ccco1)c1cn(Cc2ccc(Cl)cc2)c(Nc2ccc(Oc3cccc(F)n3)cc2)nc1=O" landed at 6.92

Reported pIC50 for "COC(=O)c1cccc(Oc2ccc(/N=c3\[nH]cc(C4CCOCC4)c(=O)n3Cc3ccc(Cl)cc3)cc2)n1" was 7.18

Summary for this compound, "Cc1nnc(-c2c[nH]/c(=N\c3ccc(Oc4cccc(C#N)n4)cc3)n(Cc3ccc(Cl)cc3)c2=O)o1" : pIC50 is 7.47

Lab note: "O=C(Nc1c[nH]/c(=N\c2ccc(Oc3ccc(C(F)(F)F)nn3)cc2)n(Cc2ccc(Cl)cc2)c1=O)C1CCOCC1" gave pIC50 of 8.52

Reported pIC50 ( "C[C@@H](NC(=O)c1cn(Cc2ccc(Cl)cc2)c(Nc2ccc(Oc3cccc(F)n3)cc2)nc1=O)C(N)=O" ) = 7.44

Note to self: pIC50 recorded for "COC(=O)C(C)(C)Cn1c(=O)cc(Nc2ccc(Oc3ccc(F)cn3)c(C)n2)n(C[C@H]2CC[C@H](C)CC2)c1=O" was 8.05

Reported pIC50 of "N#CCNC(=O)c1c[nH]/c(=N\c2ccc(Oc3ccon3)cc2)n(Cc2ccc(Cl)cc2)c1=O" : 7.68

Measured pIC50 of "COCCn1c(=O)cc(Nc2ccc(Oc3ccc(F)nc3)cc2)n(Cc2ccc(Cl)cc2)c1=O" : 8.00

The value of pIC50 measured for the compound "C#CCNC(=O)c1c[nH]/c(=N\c2ccc(Oc3ccc(F)cn3)cc2)n(Cc2ccc(Cl)cc2)c1=O" turned out to be 8.30

Just so you know, measured pIC50 for "CC(C)c1c[nH]/c(=N\c2ccc(Oc3cncc(C(=O)O)c3)cc2)n(Cc2ccc(Cl)cc2)c1=O" came out at 7.92

Record "COC(=O)C(C)(C)Cn1c(=O)cc(Nc2ccc(Oc3ccc(F)cn3)c(C)n2)n(Cc2ccc(Cl)cc2)c1=O" , field pIC50: 8.40

----------
# test-system: human P2X3 receptor (Homo sapiens (Human), UniProt P56373)
# Sequence (P56373 whole entry): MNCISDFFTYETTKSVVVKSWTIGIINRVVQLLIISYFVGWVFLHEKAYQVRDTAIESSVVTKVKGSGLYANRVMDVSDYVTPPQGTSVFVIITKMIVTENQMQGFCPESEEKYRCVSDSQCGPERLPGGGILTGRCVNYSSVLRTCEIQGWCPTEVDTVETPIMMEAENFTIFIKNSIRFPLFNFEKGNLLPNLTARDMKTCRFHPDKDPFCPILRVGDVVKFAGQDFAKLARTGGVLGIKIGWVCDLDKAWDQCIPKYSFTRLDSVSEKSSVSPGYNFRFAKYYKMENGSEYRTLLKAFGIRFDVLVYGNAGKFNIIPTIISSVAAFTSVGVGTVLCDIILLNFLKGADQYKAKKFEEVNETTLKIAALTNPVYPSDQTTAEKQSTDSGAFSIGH
# protocol-summary: Evaluation of human P2X3 receptor inhibitory activity (Test Example 1-2, FLIPR 384, 384-well, 150 nM ATP)
# Format: cell-based
# applied-conditions: human P2X3 receptor in C6BU-1 cells; Test Example 1-2 (compounds I-301 to I-483); read-out: P2X3 IC50
measured-attribute: pIC50
Kindly note that pIC50 refers to -log10 of the concentration in mol/L and answer with the value alone.

Examples with answers:
Cn1ccc(NC(=O)c2cn(Cc3ccc(Cl)cc3)c(Nc3ccc(Oc4cccc(F)n4)cc3)nc2=O)n1 [Compound I-378]
7.70
CNC(=O)CNC(=O)c1cn(Cc2ccc(Cl)cc2)c(Nc2ccc(Oc3cccc(F)n3)cc2)nc1=O [Compound I-430]
7.08
CC(C)[C@H](NC(=O)c1cn(Cc2ccc(Cl)cc2)c(Nc2ccc(Oc3cccc(F)n3)cc2)nc1=O)C(N)=O [Compound I-380]
8.40
O=C(Nc1cc[nH]n1)c1cn(Cc2ccc(Cl)cc2)c(Nc2ccc(Oc3cccc(F)n3)cc2)nc1=O [Compound I-421]
7.77
Cc1noc(-c2c[nH]/c(=N\c3ccc(Oc4cccc(C(=O)O)n4)cc3)n(Cc3ccc(Cl)cc3)c2=O)n1 [Compound I-313]
8.30
NC(=O)CNC(=O)c1cn(Cc2ccc(Cl)cc2)c(Nc2ccc(Oc3cccc(F)n3)cc2)nc1=O [Compound I-431]
7.36
Cc1nc(Nc2cc(=O)n(C(C)C)c(=O)n2Cc2ccc(Cl)cc2)ccc1Oc1cccc(C(=O)O)n1 [Compound I-341]
8.00
C[C@H](NC(=O)c1cn(Cc2ccc(Cl)cc2)c(Nc2ccc(Oc3cccc(F)n3)cc2)nc1=O)C(N)=O [Compound I-381]
8.40

Data point: CCc1c[nH]c2cc(Nc3ncc(NC(=O)C4CCOCC4)c(=O)n3Cc3ccc(Cl)cc3)ccc12 [Compound I-416] ; pIC50 = 6.39

----------
# test-system: human P2X3 receptor (Homo sapiens (Human))
# protocol-summary: Evaluation of human P2X3 receptor inhibitory activity (Test Example 1-1, FDSS 3000, 96-well, 50 nM ATP)
# Assay type: cell-based
# applied-conditions: human P2X3 receptor in C6BU-1 cells; Test Example 1-1 (compounds I-001 to I-300)
Response field label: string, one of 1 (yes) (IC50 strictly below 20 nM) or 0 (no).

As a guide, the following entries are already answered.
Cc1cc(/N=c2\[nH]cc(NC(=O)C3CCOCC3)c(=O)n2Cc2ccc(Cl)cc2)ccc1Oc1ccon1
1 (yes)
CCn1c(=O)cc(Nc2ccc(Oc3cccc(C(N)=O)c3)c(C)n2)n(Cc2ccc(Cl)cc2)c1=O
0 (no)
Cc1ccc(Oc2ccc(Nc3nc(=O)c(C(=O)NCC(=O)N(C)C)cn3Cc3ccc(Cl)cc3)cc2)nn1
0 (no)

// next entry
*Q* Hello, I'm reviewing records and need to know if IC50 of "CCCn1c(=O)cc(Nc2ccc(Oc3cccc(C#N)c3)c(C)n2)n(Cc2ccc(Cl)cc2)c1=O" is below 20 nM. Could you check?
*A* 0 (no)

----------
# test-system: human P2X3 receptor (Homo sapiens (Human), UniProt P56373)
# protocol-summary: Evaluation of human P2X3 receptor inhibitory activity (Test Example 1-1, FDSS 3000, 96-well, 50 nM ATP)
# Type: cell-based
# applied-conditions: human P2X3 receptor in C6BU-1 cells; Test Example 1-1 (compounds I-001 to I-300)
Hi! Just check whether IC50 is below 20 nM. Below gives fulfilled, equal or above gives not fulfilled.

*Q* Given the entry O=c1c(-c2ccc(O)nc2)c[nH]/c(=N\c2ccc(Oc3ccon3)cc2)n1Cc1ccc(Cl)cc1 [Compound I-205] , would its reported IC50 be below 20 nM?
*A* not fulfilled

----------
Listing of recorded IC50 by entry.
# test-system: human P2X3 receptor (Homo sapiens (Human), UniProt P56373)
# protocol-summary: Evaluation of human P2X3 receptor inhibitory activity (Test Example 1-1, FDSS 3000, 96-well, 50 nM ATP)
# Type: cell-based
# applied-conditions: human P2X3 receptor in C6BU-1 cells; Test Example 1-1 (compounds I-001 to I-300)
Please respond with the number in nM and leave the unit unwritten.

get_value(item= O=C(O)c1cccc(Oc2ccc(Nc3ncc(C(=O)O)c(=O)n3Cc3ccc(Cl)cc3)cc2)n1 [Compound I-050] , readout=IC50) returns 67

So, Cc1cc(Nc2nc(=O)c(C(=O)NC3CCOCC3)cn2Cc2ccc(Cl)cc2)ccc1Oc1ncccc1F [Compound I-160] ? Its IC50 was 26

----------
IC50 values for the compounds below.
# test-system: human P2X3 receptor (Homo sapiens (Human))
# protocol-summary: Evaluation of human P2X3 receptor inhibitory activity (Test Example 1-2, FLIPR 384, 384-well, 150 nM ATP)
# Type: cell-based
# applied-conditions: human P2X3 receptor in C6BU-1 cells; Test Example 1-2 (compounds I-301 to I-483); read-out: P2X3 IC50
The response must be a number in nM with no trailing unit.

Use the examples below as a reference point.
CC(C)c1c[nH]/c(=N\c2ccc(Oc3cccc(C(=O)O)n3)cc2)n(Cc2ccc(Cl)cc2)c1=O
6
CCC(=O)Nc1c[nH]/c(=N\c2ccc(Oc3cccc(CCC(=O)OC)c3)cc2)n(Cc2ccc(Cl)cc2)c1=O
366
O=C(Nc1cn[nH]c1)c1cn(Cc2ccc(Cl)cc2)c(Nc2ccc(Oc3cccc(F)n3)cc2)nc1=O
22
CCCn1c(=O)cc(Nc2ccc(Oc3cccc(C(=O)O)c3)c(C)n2)n(Cc2ccc(C)cc2)c1=O
5
Cc1noc(-c2c[nH]/c(=N\c3ccc(Oc4ccc(C(=O)O)nn4)cc3)n(Cc3ccc(Cl)cc3)c2=O)n1
13

Item: "COC(=O)[C@H](CO)NC(=O)c1c[nH]/c(=N\c2ccc(Oc3ccon3)cc2)n(Cc2ccc(Cl)cc2)c1=O" | IC50: 47

For this compound ( "Cc1ccccc1Cn1cc(C(=O)NC2CCOCC2)c(=O)nc1Nc1ccc(Oc2cccc(F)n2)cc1" ), measured IC50 is 781
